# Tested System: T1, recombinant human TREM2 protein (amino acids 19 to 174) (human, UniProt Q9NZC2 19-174)
# T1 construct: range 19-174
# T1 sequence (looked up): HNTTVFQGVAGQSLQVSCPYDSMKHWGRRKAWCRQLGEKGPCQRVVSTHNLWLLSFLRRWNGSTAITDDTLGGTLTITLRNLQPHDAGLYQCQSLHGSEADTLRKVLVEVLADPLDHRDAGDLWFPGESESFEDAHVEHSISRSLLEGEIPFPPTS
# Assay Explanation: ELISA, VHH-hFc titrated on coated TREM2 (1 ug/mL), HRP-goat anti-hIgG

[
  {
    "Binder": "Fc fusion antibody of single-domain antibody 1H1 (Fc fusion, also called VHH-hFc; not shown: human IgG1 (vector RJK-V4-hFC1) or IgG4 (vector RJK-V4-3) hinge, CH2, CH3 with 6xHis tag; which of the two is told only) ESGGGLVQPGGSLRLSCAASGRTFSSYVMGWFRQAPGKEREFVAAISWSGGITYYGDSVKGRFTISRDNAKNTVFLQMNSLKPEDTAVYYCASGSGSYYRGWEYDYWGQGTQVTVSS",
    "binding result": "binds"
  },
  {
    "Binder": "Fc fusion antibody of single-domain antibody 12G10 (Fc fusion, also called VHH-hFc; not shown: human IgG1 (vector RJK-V4-hFC1) or IgG4 (vector RJK-V4-3) hinge, CH2, CH3 with 6xHis tag; which of the two is told only) ESGGGLVQPGGSLRLSCAASGFAFSNYVMHWYRQAPEKERELVAIIGSQGGAYTNYAASVKGRFTISRDNAKNMVYLQMNNLKPEDTAVYYCNVVYIGRPNWGQGTQVTVSS",
    "binding result": "binds"
  },
  {
    "Binder": "Fc fusion antibody of single-domain antibody 10B3 (Fc fusion, also called VHH-hFc; not shown: human IgG1 (vector RJK-V4-hFC1) or IgG4 (vector RJK-V4-3) hinge, CH2, CH3 with 6xHis tag; which of the two is told only) ESGGGLVQAGESLRLSCAASGRTFTNYAMGWFRQAPGKEREFVAGVSWSGSSTDYADSVKGRFTISTDNAKNTVYLQINNLKPEDTAVYICGVKYFGHSRGGYDYWGQGTQVTVSS",
    "binding result": "binds"
  }
]
